Please provide measured ABUTH preemergence herbicidal rating for the entries that follow.
Test system: ABUTH (Velvetleaf)
Procedure details: Preemergence herbicidal evaluation
Assay type: in vivo, Abutilon theophrasti
Recorded conditions: rate 0.2500 kg/ha; rated 4-5 weeks after treatment

Asked: Suppose we examine the molecule CC1SC(=Nc2cc(N3C(=O)C4=C(CCCC4)C3=O)c(F)cc2Cl)N(C)C1=O (stereo not drawn) ; what ABUTH preemergence herbicidal rating value has been reported?
Given back: 2.0

Asked: Ok, now CN1C(=O)CSC1=Nc1cc(N2C(=O)C3=C(CCCC3)C2=O)c(F)cc1Cl
Given back: 9.0

Asked: Ok, now CCOC(=O)CN1C(=O)C(=C2CCCC2)SC1=Nc1cc(-n2c(=O)cc(C(F)(F)F)n(C)c2=O)c(F)cc1Cl
Given back: 9.0

Asked: Ok, now CCOC(=O)CN1C(=O)C(C)SC1=Nc1cc(-n2c(=O)cc(C(F)(F)F)n(C)c2=O)c(F)cc1Cl (stereo not drawn)
Given back: 9.0

Asked: Ok, now CN1C(=O)C(F)SC1=Nc1cc(N2C(=O)C3=C(CCCC3)C2=O)c(F)cc1Cl (stereo not drawn)
Given back: 0.0

Asked: Ok, now COC(=O)CN1C(=O)CSC1=Nc1cc(-n2c(=O)cc(C(F)(F)F)n(C)c2=O)c(F)cc1Cl
Given back: 9.0
